biological target: NDM-1 (Klebsiella pneumoniae); assay: Enzyme activity: determination of IC50, fluorescence assay with CCF2-FA substrate; format: biochemical; conditions: NDM1 IC50, NDM-1 enzyme 1 pM, CCF2-FA 1.25 μM, 2 hours at 25° C.
Sequence (C7C422 29-270, looked up, species assumed): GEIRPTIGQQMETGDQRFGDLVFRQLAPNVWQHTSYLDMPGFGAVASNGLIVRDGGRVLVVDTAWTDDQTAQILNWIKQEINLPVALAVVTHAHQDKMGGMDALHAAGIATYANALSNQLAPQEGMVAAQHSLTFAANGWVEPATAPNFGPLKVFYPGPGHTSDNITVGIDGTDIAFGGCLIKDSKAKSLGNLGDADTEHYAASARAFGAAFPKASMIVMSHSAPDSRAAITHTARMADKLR
# reported pIC50; entries follow
Keep it numeric: pIC50 is minus log10 of the concentration in mol/L.

{"Compound": "CCC[C@H](C(=O)O)[C@H](Cc1cnc(N2CCNCC2)nc1)c1nnn[nH]1", "pIC50": 6.28}

Let's switch to this compound now.
So what's the measured pIC50 for this one? CC(C)C[C@H](C(=O)O)[C@H](Cc1ccc(C2=CCNCC2)c(F)c1)c1nn[nH]n1 [Example 453, 2,2,2-trifluoroacetate]
7.19
